# studyTarget: 5-hydroxytryptamine receptor 2B (Homo sapiens) (UniProt P41595)
# Sequence (P41595 whole entry): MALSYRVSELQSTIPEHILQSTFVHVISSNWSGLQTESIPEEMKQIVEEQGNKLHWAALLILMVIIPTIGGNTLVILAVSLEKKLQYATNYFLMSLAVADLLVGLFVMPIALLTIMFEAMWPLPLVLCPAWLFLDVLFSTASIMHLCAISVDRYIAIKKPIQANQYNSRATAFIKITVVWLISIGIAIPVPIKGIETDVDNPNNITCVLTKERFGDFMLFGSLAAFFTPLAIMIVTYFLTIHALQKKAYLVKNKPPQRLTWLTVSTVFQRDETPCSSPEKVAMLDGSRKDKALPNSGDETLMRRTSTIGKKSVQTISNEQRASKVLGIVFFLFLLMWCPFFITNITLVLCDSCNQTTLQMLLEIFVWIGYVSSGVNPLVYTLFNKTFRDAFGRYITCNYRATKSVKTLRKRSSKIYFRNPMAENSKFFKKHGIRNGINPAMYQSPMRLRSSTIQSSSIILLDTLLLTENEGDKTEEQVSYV
# testConditions: Compound concentration 10 µM
# Description: PDSP Primary Binding target: HTR2B - Compounds are tested at 10 uM concentration, plate are incubated at room temperature in the dark for 90 minutes. Reaction are stopped by vacuum filtration onto 0.3% polyethyleneimine soaked filter mats using Filtermate harvester. Scintilation cocktail is then melted onto microwave-dried filters on a hot plate and the radio activity is counted in Microbia counter.
observable: inhibition (%)
One number for each entry, in %.

// worked examples, inhibition included
compound: COc1cccc([C@H](O)C2CCN(CCc3ccc(F)cc3)CC2)c1OC
outputUnit: %
inhibition: 89.1
//
compound: O=C(O)C1CN(Cc2ccc(OCc3ccc(Cl)c(Cl)c3)cc2)C1
outputUnit: %
inhibition: 10.2
//
compound: C=CCN1C[C@H](C)N([C@H](c2ccc(C(=O)N(CC)CC)cc2)c2cccc(O)c2)C[C@H]1C
outputUnit: %
inhibition: 30
//
compound: Cc1cccc(NC(=O)N[C@@H]2N=C(c3ccccc3)c3ccccc3N(C)C2=O)c1
outputUnit: %
inhibition: 63
//
compound: CN1CCN(c2ccc(Nc3c4ccccc4nc4ccccc34)cc2)CC1
outputUnit: %
inhibition: 36.1

Give measured inhibition for every item shown.
1. CN1C[C@H](C(=O)N[C@]2(C)O[C@@]3(O)[C@@H]4CCCN4C(=O)[C@H](Cc4ccccc4)N3C2=O)C[C@@H]2c3cccc4[nH]cc(c34)C[C@H]21
2. NC[C@@H]1O[C@H](C23CC4CC(CC(C4)C2)C3)Cc2c1ccc(O)c2O
3. Cc1c(C2=CCN(C(=O)N(C)C(C)C)CC2)nnn1-c1cccnc1F
4. C[N+]1(C)[C@@H]2C[C@@H](OC(=O)C(O)(c3cccs3)c3cccs3)C[C@H]1[C@@H]1O[C@@H]12
5. CCCCCNC(=N)N/N=C/c1c[nH]c2ccc(OC)cc12
6. N#Cc1ccc(NC(=O)Nc2ccccc2Br)c2nn[nH]c12
7. C[C@@H](NCCc1ccc(O)cc1)[C@@H](O)c1ccc(O)cc1 (relative stereo)
8. Cc1cn2cc(CC(=O)N3CCC4(CC3)CN(Cc3ccc(-n5nccn5)cc3Cl)C4)nc2s1

result:
[82.8, 48.1, 6.62, 11.5, 100, 33.9, 34.1, 19.4]

Give measured inhibition for every item shown.
1. CC(C)NC(=O)c1ccc(C#Cc2ccncc2)cn1
2. O=C(c1cc2c(cc1F)OC(c1ccc(F)cc1)(c1ccc(Cl)cc1Cl)O2)N1CCOCC1 (stereo not given)

result:
[34.4, 85.6]

Give measured inhibition for every item shown.
1. COc1ccc(S(=O)(=O)c2cc(OC)ccc2S(=O)(=O)c2ccc([C@H](C)NS(C)(=O)=O)cc2)cc1
2. FC(F)(F)c1cccc(-c2noc(-c3cc(-c4ccccc4)c(C(F)(F)F)s3)n2)c1
3. CCN(CC)CCCCC1CCN(CC(=O)N2c3ccccc3C(=O)Nc3cccnc32)CC1

result:
23.7
10.1
13.9

Give measured inhibition for every item shown.
1. COc1ccc(NC(=O)c2ccc(-c3ccc(-c4noc(C)n4)cc3C)cc2)cc1OCCN(C)C
2. CC(C)NCC(O)COc1cccc2ccccc12 (stereo not given)
3. OC[C@H]1O[C@@H](n2cnc3c(NC4CCCC4)ncnc32)[C@H](O)[C@@H]1O
4. COc1cc2c(CCNC(C)=O)c[nH]c2cc1Cl
5. CCc1nn(CCCN2CCN(c3cccc(Cl)c3)CC2)c(=O)n1CCOc1ccccc1

result:
[90.6, 86.3, 38.5, 57.2, 79.6]

Give measured inhibition for every item shown.
1. CN1C(=O)[C@@H](NC(=O)c2cc3ccccc3[nH]2)N=C(c2ccccc2)c2ccccc21
2. C[C@@H](NCCCc1cccc(C(F)(F)F)c1)c1cccc2ccccc12
3. Cc1cc(NC(=O)NCCN2CCC(O)(Cc3ccccc3)CC2)c2ccccc2n1
4. Brc1c(NC2=NCCN2)ccc2nccnc12
5. CC(C)NCC(O)COc1cccc2[nH]ccc12 (stereo not given)
6. O=C1O[C@]2(CC[C@H](C(=O)Nc3ccn(-c4ccccc4F)n3)CC2)c2cnccc21
7. O=c1ccc2ccc(OCCCCN3CCN(c4cccc5sccc45)CC3)cc2[nH]1
8. Cc1nn(C)c(C)c1-c1cccc2c1CC[C@H](N(C)C)C2

result:
[78.4, 96.3, 62.2, 22.7, 39.4, 17.5, 96, 84.9]

Give measured inhibition for every item shown.
1. Cc1nc(C#Cc2ccnc(Cl)c2)c(C)n1-c1ccc(OC(F)(F)F)cc1
2. O=C(O)c1n[nH]c2c1C[C@H]1C[C@@H]21
3. C/C(=N\NC(=O)[C@@H]1C(=O)NC[C@H]1c1ccccc1)c1cccc(Br)c1
4. Cc1csc(NC(=O)c2cc(F)cc(Oc3cncnc3)c2)n1
5. COc1cccc([C@@H](C)NCCCc2ccccc2Cl)c1
6. OCc1cc(C(O)CNCCCCCCOCCCCc2ccccc2)ccc1O (stereo not given)

result:
1: 19.6; 2: 15.1; 3: 14.3; 4: 26.7; 5: 96.6; 6: 90.4

Give measured inhibition for every item shown.
1. COc1ccc(Br)cc1S(=O)(=O)NC(=O)/C=C/c1ccccc1Cc1ccc2ccccc2c1
2. Cc1cc(C(=O)N2Cc3cnn(C)c3Nc3ccccc32)ccc1CNC(=O)N1CCC[C@H]1C(=S)N1CCCN(C)CC1

result:
1: -4.73; 2: 18.3

query: Quote inhibition reported for CCOC(=O)c1c(C)[nH]c2ccc3c(c12)CN1CCc2cc(OC)ccc2C1O3 (stereo not given) please.
result: 67.6

These entries and their values trace back to ChEMBL document CHEMBL5442219.
